system_under_test: mutant MGL (Homo sapiens, UniProt Q99685, L169S/L176S)
Sequence (Q99685 whole entry L169S/L176S): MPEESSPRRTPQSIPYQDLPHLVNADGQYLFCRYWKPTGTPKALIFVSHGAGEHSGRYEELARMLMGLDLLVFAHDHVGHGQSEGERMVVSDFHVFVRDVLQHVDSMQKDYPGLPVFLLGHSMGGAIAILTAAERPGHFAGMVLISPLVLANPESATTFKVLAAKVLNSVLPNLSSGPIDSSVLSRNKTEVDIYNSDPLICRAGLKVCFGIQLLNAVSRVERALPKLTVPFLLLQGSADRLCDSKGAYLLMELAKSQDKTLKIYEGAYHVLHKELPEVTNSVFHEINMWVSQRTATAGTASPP
assay_notes: MGL ThermoFluor assay - mutant
Type: binding
particulars: ThermoFluor concentration-response, read-out: MGL mutant ThermoFluor Kd
observed_property: pKd
One number for each entry, as −log10 of the molar value.

Example compounds with recorded pKd:
INSERT INTO assay_data (compound, recorded_measurement) VALUES
  ('Cc1cc(C(=O)N2CC(N3CCN(C(=O)c4ccns4)CC3)C2)ccc1-c1cccc(C(F)(F)F)c1', 7.31),
  ('O=C(c1nccs1)N1CCN(C2CN(C(=O)c3sc4cc(-c5ccccc5)ccc4c3C(F)(F)F)C2)CC1', 7.96),
  ('O=C(c1ccc2c(c1)[nH]c(=O)n2-c1ccc(F)cc1)N1CC(N2CCN(C(=O)c3cscn3)CC2)C1', 6.59);

For each listed entry, give its pKd.
1. O=C(c1ccc(-n2nc3c(c2-c2ccc(Cl)cc2)CCCC3)cc1)N1CC(N2CCN(C(=O)c3nccs3)CC2)C1
2. O=C(c1ccccc1)N1CCN(C2CN(C(=O)c3ccc(-c4ccc(Br)cc4)cc3)C2)CC1
3. O=C(c1ccccc1)N1CCN(C2CN(C(=O)c3ccc(-c4cccc(Cl)c4)cc3)C2)CC1
4. N#Cc1cccc(-c2ccc(C(=O)N3CC(N4CCN(C(=O)c5nccs5)CC4)C3)cc2)c1
5. O=C(c1ccc2[nH]c(C3CCCCC3)nc2c1)N1CC(N2CCN(C(=O)c3nccs3)CC2)C1

Response:
[8.30, 6.95, 8.04, 7.95, 6.80]

Kindly give each listed record's pKd.
1. O=C(c1cscn1)N1CCN(C2CN(C(=O)c3ccc(-c4ccccc4)cc3Cl)C2)CC1
2. Cn1c2ccccc2c2cc(C(=O)N3CC(N4CCN(C(=O)c5nccs5)CC4)C3)ccc21

Response:
[7.09, 7.60]

Record pKd per entry; entries follow.
1. O=C(c1cscn1)N1CCN(C2CN(C(=O)C3CCC(c4ccc(Cl)cc4)CC3)C2)CC1 (stereo not shown)
2. Cc1c(C(=O)N2CCN(C3CN(C(=O)c4cc[nH]c4)C3)CC2)sc2cc(C(F)(F)F)ccc12
3. O=C(c1ccccc1)N1CCN(C2CN(C(=O)c3ccc(CS(=O)(=O)c4cccc(C(F)(F)F)c4)cc3)C2)CC1
4. O=C(c1ccc(-c2ccccc2)cc1)N1CCN(C2CN(C(=O)c3cccc(F)c3)C2)CC1
5. O=C(c1ccc(Cc2ccccc2)cc1)N1CCN(C2CN(C(=O)c3ccccc3)C2)CC1
6. O=C(c1ccc2c(c1)CCN2Cc1ccc(C(F)(F)F)cc1)N1CC(N2CCN(C(=O)c3nccs3)CC2)C1

Response:
1: 6.00; 2: 7.40; 3: 5.00; 4: 6.71; 5: 7.54; 6: 7.92

* * *

system_under_test: mutant MGL (Homo sapiens, UniProt Q99685, L169S/L176S)
assay_notes: MGL ThermoFluor assay - mutant
Format: binding
particulars: ThermoFluor, compound concentration measured by qNMR, read-out: MGL mutant ThermoFluor qKd (using qNMR conc.)
pKd: −log10 of the molar value.
Please enter Condition met where pKd is greater than or equal to 6, and Condition not met where it is lower.

Solved cases below.
INSERT INTO results (entry_smiles, discrete_label) VALUES
  ('Cc1c(C(=O)N2CC(N3CCN(C(=O)c4ccc[nH]4)CC3)C2)n(C)c2ccc(Cl)cc12', 'Condition met'),
  ('O=C(c1cn2cc(Br)ccc2n1)N1CC(N2CCN(C(=O)c3nccs3)CC2)C1', 'Condition not met'),
  ('O=C(c1ccc2c(ccn2-c2ccc(C(F)(F)F)cn2)c1)N1CC(N2CCN(C(=O)c3nccs3)CC2)C1', 'Condition met');

Query: Does COCCOc1ccc(C(=O)N2CC(N3CCN(C(=O)c4nccs4)CC3)C2)cc1 have a reported pKd of at least 6?
Response: Condition met

Query: Threshold query (pKd >= 6) on Cc1ccc(-n2ccc3cc(C(=O)N4CC(N5CCN(C(=O)c6nccs6)CC5)C4)ccc32)cn1
Response: Condition met

Query: Is pKd for O=C(c1ccccc1)N1CCN(C2CN(C(=O)c3ccc4c(ccn4-c4ccncc4)c3)C2)CC1 at or above 6?
Response: Condition met

Query: Identify whether the reported pKd of the following molecule is 6 or greater: O=C(c1cnc2cc(Cl)c(Cl)cc2c1)N1CC(N2CCN(C(=O)c3nccs3)CC2)C1
Response: Condition met

Query: Quick check, pKd >= 6? Cc1c(C(=O)N2CC(N3CCN(C(=O)c4ccc[nH]4)CC3)C2)nc2ccc(Br)cn12
Response: Condition not met

Each recorded value in this set is attributed to patent US8362000B2.
